Target: T1, human IL-1Rrp2 (IL-1R-related protein 2) (human, UniProt Q9HB29 20-575)
T1 sequence (looked up): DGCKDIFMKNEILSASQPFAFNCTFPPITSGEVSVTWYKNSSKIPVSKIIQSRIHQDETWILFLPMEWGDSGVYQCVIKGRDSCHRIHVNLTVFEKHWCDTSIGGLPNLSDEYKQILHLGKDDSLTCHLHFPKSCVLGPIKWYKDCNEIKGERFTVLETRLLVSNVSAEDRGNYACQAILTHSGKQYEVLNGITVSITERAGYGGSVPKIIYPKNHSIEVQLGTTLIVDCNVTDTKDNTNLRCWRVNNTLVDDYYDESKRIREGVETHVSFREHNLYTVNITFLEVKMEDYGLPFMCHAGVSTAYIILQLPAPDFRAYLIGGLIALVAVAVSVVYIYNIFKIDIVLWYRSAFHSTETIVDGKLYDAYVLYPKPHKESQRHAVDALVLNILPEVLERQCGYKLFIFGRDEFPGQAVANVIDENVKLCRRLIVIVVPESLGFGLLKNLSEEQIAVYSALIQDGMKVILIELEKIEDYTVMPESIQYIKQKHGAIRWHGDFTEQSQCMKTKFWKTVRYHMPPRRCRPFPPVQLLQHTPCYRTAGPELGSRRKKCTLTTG
Experiment: cell-based or functional assay
# maps each entry to its EC50, IL-8 ELISA of supernatants of Jurkat T-REx cells expressing human IL-1Rrp2
Quantity: EC50, IL-8 ELISA of supernatants of Jurkat T-REx cells expressing human IL-1Rrp2

| Binder | Reported result |
| --- | --- |
| HuIL-1F9S18/FpH (ligand) SMCKPITGTINDLNQQVWTLQGQNLVAVPRSDSVTPVTVAVITCKYPEALEQGRGDPIYLGIQNPEMCLYCEKVGEQPTLQLKEQKIMDLYGQPEPVKPFLFYRAKTGRTSTLESVAFPDWFIASSKRDQPIILTSELGKSYNTAFELNINDDYKDDDDKHHHHHH | 17 ng/mL |
| HuIL-1F8E6/FpH (ligand) MEAAPKSYAIRDSRQMVWVLSGNSLIAAPLSRSIKPVTLHLIACRDTEFSDKEKGNMVYLGIKGKDLCLFCAEIQGKPTLQLKEKNIMDLYVEKKAQKPFLFFHNKEGSTSVFQSVSYPGWFIATSTTSGQPIFLTKERGITNNTNFYLDSVEDYKDDDDKHHHHHH | 2 ng/mL |
| HuIL-1F6K6 (ligand) KIDTPQQGSIQDINHRVWVLQDQTLIAVPRKDRMSPVTIALISCRHVETLEKDRGNPIYLGLNGLNLCLMCAKVGDQPTLQLKEKDIMDLYNQPEPVKSFLFYHSQSGRNSTFESVAFPGWFIAVSSEGGCPLILTQELGKANTTDFGLTMLF | 0.164 ng/mL |
| HuIL-1F9S18 (ligand) SMCKPITGTINDLNQQVWTLQGQNLVAVPRSDSVTPVTVAVITCKYPEALEQGRGDPIYLGIQNPEMCLYCEKVGEQPTLQLKEQKIMDLYGQPEPVKPFLFYRAKTGRTSTLESVAFPDWFIASSKRDQPIILTSELGKSYNTAFELNIND | 1 ng/mL |
